- Test system: HCC-2998 colon
- assay method text: NCI tumour cell line growth inhibition, 48 h
measure: TGI

| compound | system name | TGI |
| --- | --- | --- |
| Nc1cccc(C(=O)/C=C/c2ccccc2O)c1 | HCC-2998 colon | > 100 µM |
| COc1cc(-c2ccc[nH]2)[nH]c1/C=C1\N=C(C)C(C(=O)NC(C)C)=C1C | HCC-2998 colon | 13.8 µM |

Then this compound:
// CN1CCC(C(=O)Nc2n[nH]c3nnc(-c4ccccc4)cc23)CC1 : TGI value = > 25 µM

====

- Test system: LOX IMVI melanoma
- assay method text: NCI tumour cell line growth inhibition, 48 h; in the data active means GI50 below about 0.43 µM; inactive means the rest
// allowed return values: 1 (active), 0 (inactive)

Solved cases (5 shown):
| molecule | label class |
| --- | --- |
| OCCN1CCCN(CCCN2c3ccccc3Sc3ccc(C(F)(F)F)cc32)CC1 | 0 |
| C#CCN(CCCOc1ccc(Cl)cc1Cl)CCCSC(=O)CCCCCN1/C(=C\C=C2/CCCC(/C=C/C3=[N+](CCCCCC(=O)[O-])c4ccccc4C3(C)C)=C2Cl)C(C)(C)c2ccccc21 | 0 |
| COc1ccc(-c2nn(-c3cccc(Cl)c3)cc2-c2c(C#N)c(=O)n3[nH]c(-c4ccc(C)o4)nc3c2C#N)cc1 | 0 |
| COc1ccc([C@H]2c3[nH]c4ccccc4c3C[C@H]3C(=O)N(CCCCCCC(=O)NO)CC(=O)N23)cc1 | 0 |
| CN(Cc1cnc2nc(N)nc(N)c2n1)c1c(Cl)cc(C(=O)NC(CCC(=O)O)C(=O)O)cc1Br (stereo not drawn) | 1 |

Query block: Which outcome was entered for the molecule COc1ccccc1CNCCCN1C(=O)c2ccc3c4c(ccc(c24)C1=O)C(=O)N(CCCNCCCCN)C3=O in this test?
Result block: 1

Query block: Which outcome was entered for the molecule COC(=O)c1sc(=S)c2sc(C(=O)OC)c(C(=O)OC)c2c1C(=O)OC in this test?
Result block: 0

Query block: Which outcome was entered for the molecule c1ccc(-c2nc3ccccc3[nH]2)c(OCCCCCOc2ccccc2-c2nc3ccccc3[nH]2)c1 in this test?
Result block: 0
